The measurements presented in this section are drawn from PubChem BioAssay (NCI).

Test system: ACHN renal
Experiment: NCI tumour cell line growth inhibition, 48 h
Record form. Attribute: TGI. Fill in for each entry.

Q: Quick one: TGI for O=c1onc2n1-c1ccc(Cl)cc1C(=S)N1CSCC21 (stereo not given) ?
Ans: > 100 µM

Q: Item under review: CCOP(=O)(OCC)Oc1c(OC)c2[nH]c(C(=O)OC)cc2c2c(C(=O)O)c[nH]c12 . Reported TGI?
Ans: > 100 µM

Q: Param item = Cc1nc(OCc2ccccc2)c2ncn(CCO)c2n1 ; retrieve measured TGI.
Ans: > 100 µM

Q: Given CCOC(=O)c1[nH]c2cc(Cl)ccc2c1[C@@H](C(=O)NC(C)(C)C)N(CC)C(=O)CCCCC#Cc1cccc2c1CN(C1CCC(=O)NC1=O)C2=O (stereo not given in full) , state its recorded TGI.
Ans: 13.3 µM

Q: Record request: TGI value, item CSC(=NC(=O)c1ccccc1Cl)SCCSC(=NC(=O)c1ccccc1Cl)SC
Ans: > 100 µM
